Source of measurements: ChEMBL document CHEMBL1124434

# Assay system: Alpha-2A adrenergic receptor (Bos taurus, UniProt Q28838)
# Sequence (Q28838 whole entry): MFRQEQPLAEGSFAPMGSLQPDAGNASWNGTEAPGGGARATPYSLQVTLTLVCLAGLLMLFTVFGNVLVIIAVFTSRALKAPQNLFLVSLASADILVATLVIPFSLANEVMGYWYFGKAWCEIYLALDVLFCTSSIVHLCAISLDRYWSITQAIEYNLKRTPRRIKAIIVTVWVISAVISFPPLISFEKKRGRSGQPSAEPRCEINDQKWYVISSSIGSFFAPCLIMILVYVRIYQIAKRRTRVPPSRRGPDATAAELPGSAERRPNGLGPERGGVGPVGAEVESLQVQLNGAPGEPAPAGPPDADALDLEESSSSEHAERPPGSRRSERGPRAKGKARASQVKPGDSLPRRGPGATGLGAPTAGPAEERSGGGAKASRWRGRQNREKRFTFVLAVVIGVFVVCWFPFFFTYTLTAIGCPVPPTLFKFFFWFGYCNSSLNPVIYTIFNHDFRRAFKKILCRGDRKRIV
Measurement kind: pIC50
FYI, pIC50 means -log10 of a concentration in mol per litre.

Reading of pIC50 for "Clc1cccc(Cl)c1N=C1NCCN1" with Alpha-2A adrenergic receptor (Bos taurus, UniProt Q28838): 8.70

* * *

# Assay system: 5-hydroxytryptamine receptor 1B (Rattus norvegicus)
# Assay details: Concentration necessary to achieve half maximal inhibition of [125I]- Iodocyanopindolol binding to 5-hydroxytryptamine 1B receptor at 1 uM
Each record here notes measured Change.
Kindly answer with a numeric value in %, unit omitted.

Here are 5 compounds together with their reported answers.
Compound | Result unit | Reported
COc1ccc(C)c2c1OC[C@@H]1[C@@H]2CCCN1C | % | -35
CCCN1CCC=C2c3ccccc3OCC21 (stereo not drawn) | % | -11
CN1CCC[C@@H]2c3cc(O)ccc3OC[C@H]21 | % | 6
CCCN1CCC[C@@H]2c3ccccc3OC[C@H]21 | % | -10
CCCN1CCC[C@@H]2c3c(OC)cc(C)cc3OC[C@H]21 | % | -31

Entry "CCCN1CCC[C@@H]2c3cccc(O)c3OC[C@H]21" ; Change = -2

Note to self: Change recorded for "Cc1ccc(O)c2c1[C@H]1CCCN(C)[C@@H]1CO2" was -10

Entry "CN1CCC[C@@H]2c3cccc(O)c3OC[C@H]21" ; Change = -2
